- system-name: TTK (Homo sapiens (Human), UniProt P33981)
- Sequence (P33981 whole entry): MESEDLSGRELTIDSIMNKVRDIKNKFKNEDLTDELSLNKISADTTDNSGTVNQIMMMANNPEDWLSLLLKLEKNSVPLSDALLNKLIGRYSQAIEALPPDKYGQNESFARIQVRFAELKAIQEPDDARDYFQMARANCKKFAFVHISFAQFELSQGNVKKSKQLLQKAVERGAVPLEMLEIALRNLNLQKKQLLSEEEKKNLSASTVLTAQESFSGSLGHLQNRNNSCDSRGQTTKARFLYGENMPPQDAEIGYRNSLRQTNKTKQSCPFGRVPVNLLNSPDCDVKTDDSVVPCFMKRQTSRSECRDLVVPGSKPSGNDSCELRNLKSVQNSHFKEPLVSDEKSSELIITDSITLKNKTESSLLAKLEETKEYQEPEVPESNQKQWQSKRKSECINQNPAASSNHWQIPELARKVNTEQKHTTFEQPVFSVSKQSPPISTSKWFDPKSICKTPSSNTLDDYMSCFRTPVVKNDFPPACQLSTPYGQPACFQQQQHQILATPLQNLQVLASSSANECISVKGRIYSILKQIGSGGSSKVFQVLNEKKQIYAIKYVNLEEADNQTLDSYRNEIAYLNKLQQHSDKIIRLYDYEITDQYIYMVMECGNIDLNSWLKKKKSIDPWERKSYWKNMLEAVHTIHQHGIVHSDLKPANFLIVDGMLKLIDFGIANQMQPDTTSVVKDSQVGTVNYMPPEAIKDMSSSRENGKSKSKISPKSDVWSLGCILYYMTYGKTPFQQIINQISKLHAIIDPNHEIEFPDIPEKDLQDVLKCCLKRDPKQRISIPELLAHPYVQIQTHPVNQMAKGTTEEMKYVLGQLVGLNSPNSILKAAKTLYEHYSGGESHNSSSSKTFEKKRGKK
- test-details: TTK enzyme assay (LanthaScreen Eu Kinase Binding)
- protocol-conditions: arithmetic mean of two or more experiments
Provide the reported TTK enz pIC50 of each item.

Return TTK enz pIC50 for the following compound: Cc1cc2ncccc2cc1Nc1ncc2c(n1)n([C@@H]1CCNC[C@@H]1F)c(=O)n2C
<5.1

Return TTK enz pIC50 for the following compound: Cc1cc2ncccc2cc1Nc1ncc2c(n1)n([C@H]1CCN(C)C1)c(=O)n2C
<5.1

Return TTK enz pIC50 for the following compound: Cc1cc2nnccc2cc1Nc1ncc2c(n1)n(C1CCN(C)CC1)c(=O)n2C
<5
